# target: Transient receptor potential cation channel subfamily V member 1 (Homo sapiens, UniProt Q8NER1)
# Sequence (Q8NER1 whole entry): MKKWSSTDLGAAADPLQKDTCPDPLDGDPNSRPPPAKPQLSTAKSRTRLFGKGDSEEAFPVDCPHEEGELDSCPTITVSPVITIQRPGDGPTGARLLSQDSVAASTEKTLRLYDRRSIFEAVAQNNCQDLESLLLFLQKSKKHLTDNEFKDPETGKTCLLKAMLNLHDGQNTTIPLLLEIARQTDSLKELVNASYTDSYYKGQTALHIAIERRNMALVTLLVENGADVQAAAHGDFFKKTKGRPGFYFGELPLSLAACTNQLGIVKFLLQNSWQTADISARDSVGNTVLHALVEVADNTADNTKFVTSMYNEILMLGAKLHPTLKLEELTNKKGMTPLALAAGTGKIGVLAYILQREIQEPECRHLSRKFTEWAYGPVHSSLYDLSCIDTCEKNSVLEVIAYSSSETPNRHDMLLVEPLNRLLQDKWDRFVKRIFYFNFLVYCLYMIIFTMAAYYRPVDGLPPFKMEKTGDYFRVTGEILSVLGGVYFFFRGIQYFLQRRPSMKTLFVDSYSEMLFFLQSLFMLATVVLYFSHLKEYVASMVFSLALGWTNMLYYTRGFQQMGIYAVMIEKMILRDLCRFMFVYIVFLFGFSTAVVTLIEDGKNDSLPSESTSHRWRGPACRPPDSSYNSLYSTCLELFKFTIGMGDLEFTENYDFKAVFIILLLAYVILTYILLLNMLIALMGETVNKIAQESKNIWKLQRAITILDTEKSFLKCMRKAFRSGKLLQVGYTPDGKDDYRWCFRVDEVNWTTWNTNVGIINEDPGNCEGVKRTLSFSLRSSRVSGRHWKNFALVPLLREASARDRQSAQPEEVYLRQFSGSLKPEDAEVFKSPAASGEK
# assay method text: Antagonist activity at human TRPV1 transfected in CHOK1 cells assessed as inhibition of capsaicin-induced intracellular calcium level measured for 120 secs by FLIPR analysis
Assign IC50 to each entry below.

Entry under review: "CN(CCO)c1ccc(NC(=O)COc2ccccc2C(C)(C)C)cn1" . Reported IC50?
796 nM

Entry under review: "CN(C)c1ccc(NC(=O)COc2ccc(C(C)(C)C)cc2)cn1" . Reported IC50?
59 nM

Value lookup for IC50; key = "CN(CCO)c1ccc(NC(=O)COc2ccc(C(C)(C)C)cc2)cn1"
33 nM

Fill in the blank: the reported IC50 of "CN(CCO)c1ccc(NC(=O)COc2ccc(C34CC5CC(CC(C5)C3)C4)cc2)cn1" is ____.
> 10000 nM

Entry under review: "CN(CCO)c1ccc(NC(=O)COc2ccc(C(C)(C)C)cc2Br)cn1" . Reported IC50?
86 nM

Give its IC50 value. Item: "CC(C)c1ccc(OCC(=O)Nc2ccc(N(C)CCO)nc2)cc1"
110 nM

Please look up its IC50: "CN(CCO)c1ccc(NC(=O)COc2ccccc2)cn1"
> 10000 nM

I would be grateful if you could share the reported IC50 for "CN(CCO)c1ncc(NC(=O)COc2ccc(C(C)(C)C)cc2)cc1Cl" .
44 nM

IC50 for "Cc1cc(NC(=O)COc2ccc(C(C)(C)C)cc2)cnc1N(C)CCO" ?
130 nM

Requested read-out: IC50. Entry: "CN(CCO)c1ccc(NC(=O)COc2ccc(C(F)(F)F)cc2)cn1"
> 10000 nM
